biological target: Cannabinoid receptor 2 (Homo sapiens, UniProt P34972); test: Displacement of [3H]-CP-55940 from human CB2 receptor expressed in CHO cell membranes after 1 hr by beta-counting analysis
Sequence (P34972 whole entry): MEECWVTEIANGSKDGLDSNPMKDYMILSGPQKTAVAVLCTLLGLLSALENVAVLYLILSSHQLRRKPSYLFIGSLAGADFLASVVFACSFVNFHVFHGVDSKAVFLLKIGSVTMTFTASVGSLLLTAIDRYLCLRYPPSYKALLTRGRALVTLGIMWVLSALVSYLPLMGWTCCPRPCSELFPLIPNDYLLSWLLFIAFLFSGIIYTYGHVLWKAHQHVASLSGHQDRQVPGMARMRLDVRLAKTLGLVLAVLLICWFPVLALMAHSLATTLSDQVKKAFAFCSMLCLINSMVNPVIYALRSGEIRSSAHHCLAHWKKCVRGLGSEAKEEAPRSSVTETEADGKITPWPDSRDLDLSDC
molecules and their reported pKi
// field semantics: pKi = negative decimal log of concentration (mol/L)

{"Molecule": "CCCCCn1c(=O)sc2cc(C(=O)C3CCCC3)ccc21", "Target": "Cannabinoid receptor 2 (Homo sapiens, UniProt P34972)", "pKi": 6.68}
{"Molecule": "CCCCn1c(=O)sc2cc(C(=O)C34CC5CC(CC(C5)C3)C4)ccc21", "Target": "Cannabinoid receptor 2 (Homo sapiens, UniProt P34972)", "pKi": 7.59}
{"Molecule": "CCCCCCn1c(=O)sc2cc(C(=O)C34CC5CC(CC(C5)C3)C4)ccc21", "Target": "Cannabinoid receptor 2 (Homo sapiens, UniProt P34972)", "pKi": 7.41}

Alright, here's another molecule for you.
# input Need pKi of CCCCCn1c(=O)sc2cc(C(O)C34CC5CC(CC(C5)C3)C4)ccc21 (stereo not drawn) , thanks.
# output 6.57

---

experiment: Half life in human liver microsomes at 0.1 mg/ml after 60 mins; type: ADME, Microsome
Value type: half-life (min)
Express it in min; write the number only.

# input Need half-life of CCCCCn1c(=O)sc2cc(C(=O)C34CC5CC(CC(C5)C3)C4)ccc21 , thanks.
# output 48

---

test system: HT-29; assay: Cytotoxicity against human HT-29 cells at 10 uM after 72 hrs by MTS assay relative to control; format: cell-based; conditions: ht-29, 72 h
compounds and their reported Activity
Express it in %; write the number only.

{"Smiles record": "CCCCCn1c(=O)sc2cc(C(=O)C3CCCCC3)ccc21", "Endpoint value": 67}
{"Smiles record": "CCCCn1c(=O)sc2cc(C(=O)C34CC5CC(CC(C5)C3)C4)ccc21", "Endpoint value": 0}
{"Smiles record": "CCCCCCn1c(=O)sc2cc(C(=O)C34CC5CC(CC(C5)C3)C4)ccc21", "Endpoint value": 0}

Alright, here's another compound for you.
# input Need Activity of CCCCCn1c(=O)sc2cc(C(=O)C34CC5CC(CC(C5)C3)C4)ccc21 , thanks.
# output 0

---

target: Cannabinoid receptor 2 (Homo sapiens, UniProt P34972); assay: Displacement of [3H]-CP-55940 from human CB2 receptor expressed in CHO cell membranes after 1 hr by beta-counting analysis
Value type: log10 of Ki (log10 of the value in nM)
Plainly stated, the numbers are log10 of Ki given in nM.

As a guide, the following entries are already answered.
{"Compound": "CC(C)n1c(=O)sc2cc(C(=O)C34CC5CC(CC(C5)C3)C4)ccc21", "Target": "Cannabinoid receptor 2 (Homo sapiens, UniProt P34972)", "Endpoint value": 2.45}
{"Compound": "CCCCCn1c(=O)sc2cc(C(OC)C34CC5CC(CC(C5)C3)C4)ccc21 (stereo not given)", "Target": "Cannabinoid receptor 2 (Homo sapiens, UniProt P34972)", "Endpoint value": 2.54}
{"Compound": "CC(Cn1c(=O)sc2cc(C(=O)C34CC5CC(CC(C5)C3)C4)ccc21)N(C)C (stereo not given)", "Target": "Cannabinoid receptor 2 (Homo sapiens, UniProt P34972)", "Endpoint value": 2.70}
{"Compound": "CCCC(C)(C)c1ccc2c(c1)OC(C)(C)[C@@H]1CC=C(C)C[C@@H]21", "Target": "Cannabinoid receptor 2 (Homo sapiens, UniProt P34972)", "Endpoint value": 0.90}
{"Compound": "CCCCCn1c(=O)sc2cc(/C(=N\\OC)C34CC5CC(CC(C5)C3)C4)ccc21", "Target": "Cannabinoid receptor 2 (Homo sapiens, UniProt P34972)", "Endpoint value": 2.64}

Alright, here's another compound for you.
# input Need log10 of Ki of CCCCCn1c(=O)sc2ccc(C(=O)C34CC5CC(CC(C5)C3)C4)cc21 , thanks.
# output 2.72

---

experiment: Protein binding in human plasma assessed as drug recovery after 4 hrs by equilibrium dialysis method; type: ADME, cell-free; conditions: read-out: Drug recovery
Value type: recovery at 4 h

# input Need recovery at 4 h of CCCCCn1c(=O)sc2cc(C(=O)C34CC5CC(CC(C5)C3)C4)ccc21 , thanks.
# output 100%

---

test: Permeability of the compound across basolateral side to apical side in human Caco2 after 60 mins; type: ADME, cell-based; settings: Caco-2, read-out: permeability
Value type: Papp B→A at 1 h (×10⁻⁶ cm/s)
Express it in ×10⁻⁶ cm/s; write the number only.

# input Need Papp B→A at 1 h of CCCCCn1c(=O)sc2cc(C(=O)C34CC5CC(CC(C5)C3)C4)ccc21 , thanks.
# output 1.3

---

molecular target: Cannabinoid receptor 1 (Homo sapiens, UniProt P21554); experiment: Displacement of [3H]-CP-55940 from human CB1 receptor expressed in CHO cell membranes after 1 hr by beta-counting analysis
Sequence (P21554 whole entry): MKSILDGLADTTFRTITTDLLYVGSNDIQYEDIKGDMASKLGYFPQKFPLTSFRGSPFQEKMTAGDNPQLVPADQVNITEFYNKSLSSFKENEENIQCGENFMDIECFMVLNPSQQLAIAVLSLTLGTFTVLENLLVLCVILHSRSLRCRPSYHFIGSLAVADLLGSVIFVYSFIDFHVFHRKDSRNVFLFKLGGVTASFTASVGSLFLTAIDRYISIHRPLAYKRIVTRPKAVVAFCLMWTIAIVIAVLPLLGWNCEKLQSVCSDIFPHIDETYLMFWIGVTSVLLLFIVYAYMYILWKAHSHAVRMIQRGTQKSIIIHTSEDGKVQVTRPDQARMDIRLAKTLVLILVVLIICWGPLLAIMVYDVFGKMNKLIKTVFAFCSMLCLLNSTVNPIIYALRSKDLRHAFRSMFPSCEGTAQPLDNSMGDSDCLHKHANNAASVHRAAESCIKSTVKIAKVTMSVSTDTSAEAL
pKi: −log10 of the molar value.
compounds and their reported pKi

# input Request body: readout pKi, system Cannabinoid receptor 1 (Homo sapiens, UniProt P21554), query CCCCCn1c(=O)sc2cc(C(=O)C3CCCCC3)ccc21 . Return the value.
# output < 6.00

# input # repeat for CCCCCn1c(=O)sc2cc(C(=O)C34CC5CC(CC(C5)C3)C4)ccc21
# output 6.20

---

assay: Aqueous solubility of compound in stimulated intestinal fluid after 24 hrs by shake-flask method; assay type: physicochemical; details: simulated intestinal fluid
Value type: solubility thermodynamic at 24 h (µM)
Express it in µM; write the number only.

# input Need solubility thermodynamic at 24 h of CCCCCn1c(=O)sc2cc(C(=O)C34CC5CC(CC(C5)C3)C4)ccc21 , thanks.
# output 107

---

target: Cannabinoid receptor 1 (Homo sapiens, UniProt P21554); assay: Agonist activity at human CB1 receptor
molecules and their reported pKi
// field semantics: pKi = negative decimal log of concentration (mol/L)

{"Smiles record": "CCS(=O)(=O)Nc1ccc2c(c1)nc(C(C)(C)C)n2CC1CCC(F)(F)CC1", "Target": "Cannabinoid receptor 1 (Homo sapiens, UniProt P21554)", "Value type": "pKi", "Endpoint value": 7.93}

Alright, here's another molecule for you.
# input Need pKi of CC(C)(C)NC(=O)c1nn(-c2ccc(F)cc2F)c2c1[C@H]1CC[C@@H]2C1 , thanks.
# output 6.01

---

experiment: Protein binding in human plasma after 4 hrs by equilibrium dialysis method; format: ADME, cell-free; conditions: read-out: PPB (converted)
Value type: fraction unbound at 4 h
When you answer, write just the number.

# input Need fraction unbound at 4 h of CCCCCn1c(=O)sc2cc(C(=O)C34CC5CC(CC(C5)C3)C4)ccc21 , thanks.
# output 0.11

---

biological target: Cannabinoid receptor 2 (Homo sapiens); assay: Displacement of [3H]-CP-55940 from human CB2 receptor expressed in CHO cell membranes after 1 hr by beta-counting analysis
Value type: pKi
// field semantics: pKi = negative decimal log of concentration (mol/L)

As a guide, the following entries are already answered.
{"Smiles record": "CCCCCn1c(=O)sc2cc(C(=O)C3CCCCC3)ccc21", "pKi": 7.31}
{"Smiles record": "CCCCCn1c(=O)sc2cc(C(=O)C34CC5CC(CC(C5)C3)C4)ccc21", "pKi": 7.87}
{"Smiles record": "CCCCCn1c(=O)sc2cc(CC34CC5CC(CC(C5)C3)C4)ccc21", "pKi": 6.84}

Alright, here's another molecule for you.
# input Need pKi of CCCCCn1c(=O)sc2cc(/C(=N\O)C34CC5CC(CC(C5)C3)C4)ccc21 , thanks.
# output 6.60

---

molecules and their reported Ki
molecular target: Cannabinoid receptor 2 (Homo sapiens, UniProt P34972); assay: Displacement of [3H]-CP-55940 from human CB2 receptor expressed in CHO cell membranes after 1 hr by beta-counting analysis

# input Need Ki of CCCCCn1c(=O)oc2cc(C(=O)C3C(C)(C)C3(C)C)ccc21 , thanks.
# output > 1000 nM

# input # repeat for CCCCCn1c(=O)sc2cc(C(=O)C3C(C)(C)C3(C)C)ccc21
# output > 1000 nM

# input # repeat for CCCCCn1c(=O)sc2cc(NC(=O)C34CC5CC(CC(C5)C3)C4)ccc21
# output > 1000 nM

# input # repeat for CCCCCn1c(=O)sc2ccc(C(=O)C3CCCCC3)cc21
# output > 1000 nM

---

target: Cannabinoid receptor 1 (Homo sapiens, UniProt P21554); experiment: Displacement of [3H]-CP-55940 from human CB1 receptor expressed in CHO cell membranes after 1 hr by beta-counting analysis
pKi: −log10 of the molar value.
Value type: pKi

As a guide, the following entries are already answered.
{"Molecule": "CCCCn1c(=O)sc2cc(C(=O)C34CC5CC(CC(C5)C3)C4)ccc21", "pKi": 6.11}
{"Molecule": "CCCCCn1c(=O)sc2cc(C(=O)C3CCCC3)ccc21", "pKi": "< 6.00"}
{"Molecule": "CCCCCn1c(=O)sc2cc(/C(=N\\O)C34CC5CC(CC(C5)C3)C4)ccc21", "pKi": "< 6.00"}
{"Molecule": "CCCCCn1c(=O)sc2cc(C(O)C34CC5CC(CC(C5)C3)C4)ccc21 (centres undefined)", "pKi": "< 6.00"}
{"Molecule": "CCCCCCn1c(=O)sc2cc(C(=O)C34CC5CC(CC(C5)C3)C4)ccc21", "pKi": 6.04}
{"Molecule": "CCCCCn1c(=O)sc2cc(CC34CC5CC(CC(C5)C3)C4)ccc21", "pKi": 6.23}
{"Molecule": "CCCC(C)(C)c1ccc2c(c1)OC(C)(C)[C@@H]1CC=C(C)C[C@@H]21", "pKi": "< 6.00"}
{"Molecule": "CC(C)n1c(=O)sc2cc(C(=O)C34CC5CC(CC(C5)C3)C4)ccc21", "pKi": "< 6.00"}

# input Need pKi of CCCCCn1c(=O)sc2cc(C(OC)C34CC5CC(CC(C5)C3)C4)ccc21 (centres undefined) , thanks.
# output < 6.00

The origin of these recorded values is ChEMBL document CHEMBL4480384.
